test system: Key Broadleaf Weed and Crop Species; experiment: Post-emergent Test II herbicidal activity (Table 15); format: in vivo; details: Euphorbia heterophylla, post-emergence, 336 h, wild poinsettia (Euphorbia heterophylla), 35 g ai/ha, 14 d, read-out: Visual Growth Reduction (%) 14 Days After Application, EPHHL
reported property: pest or weed control at 35 g/ha

{"chemical string": "COC(=O)c1nc(-c2cccc3cc[nH]c23)c(F)c(N)c1Cl", "measurement": "0 to 29%"}
{"chemical string": "Nc1c(Cl)c(C(=O)O)nc(-c2ccc3ccsc3c2)c1Cl", "measurement": "0 to 29%"}
{"chemical string": "COC(=O)c1nc(-c2ccc3cc[nH]c3c2)nc(N)c1OC", "measurement": "0 to 29%"}
{"chemical string": "COC(=O)c1nc(-c2cccc3c2cnn3C)c(F)c(N)c1Cl", "measurement": "0 to 29%"}
{"chemical string": "COC(=O)c1nc(-c2ccc(Cl)c3occc23)c(F)c(N)c1Cl", "measurement": "0 to 29%"}
{"chemical string": "COC(=O)c1nc(-c2ccc(Cl)c3[nH]ccc23)nc(N)c1OC", "measurement": "0 to 29%"}
{"chemical string": "COC(=O)c1nc(-c2ccc3ccsc3c2)nc(N)c1OC", "measurement": "75 to 84%"}
{"chemical string": "COC(=O)c1nc(-c2cc3sccc3cc2F)nc(N)c1OC", "measurement": "95 to 100%"}
{"chemical string": "COC(=O)c1nc(-c2cccc3ccsc23)c(F)c(N)c1Cl", "measurement": "0 to 29%"}

====

Catalogue of pest or weed control at 70 g/ha values
tested on: Key Broadleaf Weed and Crop Species; experiment: Post-emergent Test II herbicidal activity (Table 15); type: in vivo; conditions: Brassica napus, post-emergence, 336 h, oilseed rape, canola (Brassica napus), 70 g ai/ha, 14 d, read-out: Visual Growth Reduction (%) 14 Days After Application, BRSNN
reported property: pest or weed control at 70 g/ha

{"chemical string": "COC(=O)c1nc(-c2ccc3occc3c2)nc(N)c1OC", "assayed target": "Key Broadleaf Weed and Crop Species", "measurement": "60 to 74%"}
{"chemical string": "COC(=O)c1nc(-c2ccc3sccc3c2)c(Cl)c(N)c1Cl", "assayed target": "Key Broadleaf Weed and Crop Species", "measurement": "0 to 29%"}
{"chemical string": "COC(=O)c1nc(-c2ccc(Cl)c3occc23)cc(N)c1Cl", "assayed target": "Key Broadleaf Weed and Crop Species", "measurement": "60 to 74%"}
{"chemical string": "Nc1c(F)c(-c2ccc3cn[nH]c3c2)nc(C(=O)O)c1Cl", "assayed target": "Key Broadleaf Weed and Crop Species", "measurement": "75 to 84%"}
{"chemical string": "COC(=O)c1nc(-c2ccc3cc[nH]c3c2)nc(N)c1Cl", "assayed target": "Key Broadleaf Weed and Crop Species", "measurement": "45 to 59%"}

====

tested on: Key Grass and Sedge Weeds as well as Grass Crops; assay: Post-emergent Test II herbicidal activity (Table 16); format: in vivo; conditions: Oryza sativa, post-emergence, 336 h, rice (Oryza sativa), 140 g ai/ha, 14 d, read-out: Visual Growth Reduction (%) 14 Days After Application, ORYSA
Reported values of pest or weed control at 140 g/ha for individual entries

{"chemical string": "COC(=O)c1nc(-c2ccc3cc[nH]c3c2F)c(F)c(N)c1OC", "pest or weed control at 140 g/ha": "0 to 29%"}
{"chemical string": "Nc1c(F)c(-c2ccc3cc[nH]c3c2)nc(C(=O)O)c1Cl", "pest or weed control at 140 g/ha": "0 to 29%"}
{"chemical string": "COC(=O)c1nc(-c2ccc3cc[nH]c3c2F)c(Cl)c(N)c1Cl", "pest or weed control at 140 g/ha": "0 to 29%"}
{"chemical string": "Nc1cc(-c2ccc3cc[nH]c3c2)nc(C(=O)O)c1Cl", "pest or weed control at 140 g/ha": "0 to 29%"}
{"chemical string": "Nc1cc(-c2cc3[nH]ccc3cc2F)nc(C(=O)O)c1Cl", "pest or weed control at 140 g/ha": "0 to 29%"}
{"chemical string": "COC(=O)c1nc(-c2ccc3c(ccn3C)c2)c(F)c(N)c1Cl", "pest or weed control at 140 g/ha": "0 to 29%"}
{"chemical string": "COC(=O)c1nc(-c2ccc3cc[nH]c3c2F)c(F)c(N)c1Cl", "pest or weed control at 140 g/ha": "30 to 44%"}
{"chemical string": "Nc1c(Cl)c(C(=O)O)nc(-c2ccc3sccc3c2)c1Cl", "pest or weed control at 140 g/ha": "0 to 29%"}
{"chemical string": "COC(=O)c1nc(-c2cc3occc3cc2F)c(F)c(N)c1Cl", "pest or weed control at 140 g/ha": "30 to 44%"}
{"chemical string": "Cc1c(-c2ccc3cc[nH]c3c2)nc(C(=O)O)c(Cl)c1N", "pest or weed control at 140 g/ha": "0 to 29%"}
{"chemical string": "COC(=O)c1nc(-c2ccc3ccn([Si](C(C)C)(C(C)C)C(C)C)c3c2F)c(F)c(N)c1Cl", "pest or weed control at 140 g/ha": "0 to 29%"}
{"chemical string": "COC(=O)c1nc(-c2ccc(Cl)c3cc[nH]c23)c(F)c(N)c1Cl", "pest or weed control at 140 g/ha": "0 to 29%"}
{"chemical string": "COC(=O)c1nc(-c2cc3[nH]ccc3cc2F)c(F)c(N)c1Cl", "pest or weed control at 140 g/ha": "0 to 29%"}
{"chemical string": "Nc1c(F)c(-c2ccc(Cl)c3occc23)nc(C(=O)O)c1Cl", "pest or weed control at 140 g/ha": "0 to 29%"}
{"chemical string": "COC(=O)c1nc(-c2ccc3cc[nH]c3c2)cc(N)c1Cl", "pest or weed control at 140 g/ha": "0 to 29%"}
{"chemical string": "COC(=O)c1nc(-c2ccc(Cl)c3occc23)nc(N)c1Cl", "pest or weed control at 140 g/ha": "0 to 29%"}
{"chemical string": "COC(=O)c1nc(-c2ccc3cc[nH]c3c2)c(Cl)c(N)c1Cl", "pest or weed control at 140 g/ha": "0 to 29%"}
{"chemical string": "COC(=O)c1nc(-c2ccc3occc3c2)cc(N)c1Cl", "pest or weed control at 140 g/ha": "0 to 29%"}
{"chemical string": "COC(=O)c1nc(-c2ccc(Cl)c3occc23)nc(N)c1OC", "pest or weed control at 140 g/ha": "0 to 29%"}
{"chemical string": "COC(=O)c1nc(-c2ccc3cc[nH]c3c2F)nc(N)c1OC", "pest or weed control at 140 g/ha": "0 to 29%"}
{"chemical string": "Cn1ccc2cc(-c3nc(C(=O)O)c(Cl)c(N)c3F)ccc21", "pest or weed control at 140 g/ha": "0 to 29%"}
{"chemical string": "Nc1c(F)c(-c2ccc3ccoc3c2)nc(C(=O)O)c1Cl", "pest or weed control at 140 g/ha": "30 to 44%"}
{"chemical string": "COC(=O)c1nc(-c2ccc(Cl)c3ccoc23)c(F)c(N)c1Cl", "pest or weed control at 140 g/ha": "0 to 29%"}
{"chemical string": "COC(=O)c1nc(-c2ccc3ccoc3c2F)cc(N)c1Cl", "pest or weed control at 140 g/ha": "0 to 29%"}
{"chemical string": "COC(=O)c1nc(-c2ccc3ccn(C)c3c2)c(F)c(N)c1Cl", "pest or weed control at 140 g/ha": "0 to 29%"}
{"chemical string": "COC(=O)c1nc(-c2ccc(Cl)c3ccoc23)nc(N)c1OC", "pest or weed control at 140 g/ha": "0 to 29%"}
{"chemical string": "COC(=O)c1nc(-c2ccc3ccoc3c2F)c(F)c(N)c1Cl", "pest or weed control at 140 g/ha": "30 to 44%"}
{"chemical string": "COC(=O)c1nc(-c2ccc3sccc3c2)c(F)c(N)c1Cl", "pest or weed control at 140 g/ha": "0 to 29%"}
{"chemical string": "COC(=O)c1nc(-c2ccc3[nH]ccc3c2)c(F)c(N)c1Cl", "pest or weed control at 140 g/ha": "0 to 29%"}
{"chemical string": "COC(=O)c1nc(-c2c(F)cc3cc[nH]c3c2F)cc(N)c1Cl", "pest or weed control at 140 g/ha": "0 to 29%"}
{"chemical string": "COC(=O)c1nc(-c2ccc3cc[nH]c3c2F)cc(N)c1Cl", "pest or weed control at 140 g/ha": "0 to 29%"}
{"chemical string": "COC(=O)c1nc(-c2ccc(Cl)c3ccoc23)cc(N)c1Cl", "pest or weed control at 140 g/ha": "0 to 29%"}
{"chemical string": "COC(=O)c1nc(-c2cc3occc3cc2F)cc(N)c1Cl", "pest or weed control at 140 g/ha": "0 to 29%"}
{"chemical string": "COC(=O)c1nc(-c2cccc3cc[nH]c23)c(F)c(N)c1Cl", "pest or weed control at 140 g/ha": "0 to 29%"}
{"chemical string": "COc1c(C(=O)O)nc(-c2ccc3cc[nH]c3c2F)c(F)c1N", "pest or weed control at 140 g/ha": "0 to 29%"}
{"chemical string": "COC(=O)c1nc(-c2ccc3ccoc3c2F)nc(N)c1OC", "pest or weed control at 140 g/ha": "30 to 44%"}
{"chemical string": "Nc1c(F)c(-c2cc3[nH]ccc3cc2F)nc(C(=O)O)c1Cl", "pest or weed control at 140 g/ha": "0 to 29%"}
